The reader will find reported CC50 at 72 h values listed item by item below.
experiment: Cytotoxicity in uninfected murine splenic cells (alamarBlue)
Format: cell-based, mouse
condition-details: mouse; uninfected splenic cells, 72 h, alamarBlue; read-out: Mouse Splenic Macrophages CC50
Could you give me the number in µM? Just the number is fine.

compound	CC50 at 72 h / µM
O=C1Oc2ccccc2C2Nc3ccc(Br)nc3[C@@H](c3ccccc3)C12 (stereo partly shown)	55.7

Shifting focus to the compound that follows.
Query :: For the compound Cc1ccc(S(=O)(=O)N2CC3C(Nc4ncccc4C3c3ccccc3)c3ccccc32)cc1 (stereo not shown) [Compound 14a] , what CC50 at 72 h is on record?
Result :: 27.2

Just for reference, paper PMC10780244 is where these values come from.
